test system: C-Raf kinase (SEQ. ID NO: 3) (Homo sapiens (Human), UniProt P04049, Y340D/Y341D)
Sequence (P04049 307-648 Y340D/Y341D): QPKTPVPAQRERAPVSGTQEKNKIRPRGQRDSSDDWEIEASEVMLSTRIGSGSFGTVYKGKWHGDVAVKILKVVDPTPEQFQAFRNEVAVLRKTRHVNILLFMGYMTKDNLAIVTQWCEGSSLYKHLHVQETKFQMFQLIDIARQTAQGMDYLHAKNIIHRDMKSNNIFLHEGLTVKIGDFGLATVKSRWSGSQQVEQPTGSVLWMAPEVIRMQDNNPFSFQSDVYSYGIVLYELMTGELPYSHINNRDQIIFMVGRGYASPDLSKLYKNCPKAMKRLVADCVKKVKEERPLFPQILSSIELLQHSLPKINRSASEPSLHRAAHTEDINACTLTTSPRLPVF
assay protocol: Biochemical Assay for C-Raf (1)
protocol conditions: Table J, assay version (1); read-out: CRAF (1) IC50
# IC50 listing for each entry below

given smiles: CC(=O)Nc1cc(-c2nccc(-c3cc(NC(=O)c4ccnc(C5(C#N)CC5)c4)ccc3C)n2)ccn1
test system: C-Raf kinase (SEQ. ID NO: 3) (Homo sapiens (Human), UniProt P04049, Y340D/Y341D)
IC50: ≤ 100 nM

given smiles: COC(=O)Nc1cc(-c2cccc(-c3cc(NC(=O)c4ccnc(C(C)(C)C#N)c4)cnc3C)c2)ncn1
test system: C-Raf kinase (SEQ. ID NO: 3) (Homo sapiens (Human), UniProt P04049, Y340D/Y341D)
IC50: ≤ 100 nM

given smiles: CC(=O)Nc1cc(-c2nccc(-c3cc(NC(=O)c4cc(C(F)(F)F)ccn4)ccc3C)n2)ccn1
test system: C-Raf kinase (SEQ. ID NO: 3) (Homo sapiens (Human), UniProt P04049, Y340D/Y341D)
IC50: ≤ 100 nM

given smiles: CCC(=O)Nc1cc(-c2cccc(-c3cc(NC(=O)c4ccnc(C(C)(C)C#N)c4)cnc3C)n2)ccn1
test system: C-Raf kinase (SEQ. ID NO: 3) (Homo sapiens (Human), UniProt P04049, Y340D/Y341D)
IC50: ≤ 100 nM

given smiles: CC(=O)Nc1cc(-c2cc(-c3cc(NC(=O)c4ccnc(C(F)(F)F)c4)c(F)cc3C)cc(=O)n2C)ccn1
test system: C-Raf kinase (SEQ. ID NO: 3) (Homo sapiens (Human), UniProt P04049, Y340D/Y341D)
IC50: 100 to 500 nM

Report IC50 for CO[C@H]1CC[C@H](C(=O)Nc2cnc(C)c(-c3cccc(-c4ccnc(NC(=O)C5CC5)c4)n3)c2)CC1
500 to 1000 nM

Recall and state the measured IC50 for CNC(=O)c1cc(-c2cccc(-c3cc(NC(=O)c4ccnc(C(C)(C)C#N)c4)ccc3C)n2)ccn1 .
≤ 100 nM

Please report IC50 for the following molecule: CC(=O)Nc1cc(-c2cc(-c3cc(NC(=O)c4ccnc(C(F)(F)F)c4)ccc3C)cc(C3CC3)n2)ccn1
≤ 100 nM

Indicate its recorded IC50; the molecule in question is COCCNc1cc(-c2cncc(-c3cc(NC(=O)c4ccnc(C(F)(F)F)c4)ccc3C)n2)ccn1
100 to 500 nM

// Input: Cc1cc(-c2cc(NC(=O)c3ccnc(C(F)(F)F)c3)ccc2F)cc(-c2ccnc(NC(=O)C3CC3)c2)n1 . Output its IC50 only.
≤ 100 nM

Tell me its IC50 given CC(=O)Nc1cc(-c2cc(-c3cc(NC(=O)c4ccnc(C(C)(C)C#N)c4)c(F)cc3C)cn(C)c2=O)ccn1 as the entry.
100 to 500 nM

Given the molecule Cc1ccc(NC(=O)c2ccnc(C(C)(C)C#N)c2)cc1-c1cccc(-c2cc(NC(=O)C3CC3)ncn2)c1 , write its reported IC50.
≤ 100 nM

Fill in IC50 for record CC(=O)Nc1cc(-c2cccc(-c3cc(NC(=O)c4ccnc(C(F)(F)F)c4)c(F)cc3C)c2)ncn1
≤ 100 nM

Give recorded IC50. CNC(=O)c1cc(-c2nccc(-c3cc(NC(=O)c4ccnc(C5(C#N)CC5)c4)ccc3C)n2)ccn1
≤ 100 nM

Determine its reported IC50: Cc1ncc(NC(=O)C2CCOCC2)cc1-c1cccc(-c2cc(NC(=O)C3CC3)ncn2)c1
500 to 1000 nM

###

test system: C-Raf kinase (SEQ. ID NO: 3) (Homo sapiens (Human), UniProt P04049, Y340D/Y341D)
assay protocol: Biochemical Assay for C-Raf (1)
protocol conditions: Table J, assay version (1); read-out: CRAF (1) IC50
pIC50: −log10 of the molar value.
assay metric: pIC50

Examples with their reported pIC50 follow.
molecule: Cc1ccc(NC(=O)c2ccnc(C(C)(C)C#N)c2)cc1-c1cncc(-c2ccnc(NC(=O)C3CC3)c2)n1
assay metric: pIC50
result: ≥ 7.00
//
molecule: COC(=O)Nc1cc(-c2nccc(-c3cc(NC(=O)c4ccnc(C(C)(C)C#N)c4)c(F)cc3C)n2)ccn1
assay metric: pIC50
result: ≥ 7.00
//
molecule: CNc1cc(-c2cccc(-c3cc(NC(=O)c4ccnc(C(C)(C)C#N)c4)cnc3C)c2)ncn1
assay metric: pIC50
result: 6.30 to 7.00
//
molecule: COC(=O)Nc1cc(-c2cnnc(-c3cc(NC(=O)c4ccnc(C(C)(C)C#N)c4)cnc3C)c2)ccn1
assay metric: pIC50
result: 6.30 to 7.00
//
molecule: Cc1ncc(NC(=O)c2ccnc(C3CC3)c2)cc1-c1cccc(-c2cc(NC(=O)C3CC3)ncn2)c1
assay metric: pIC50
result: ≥ 7.00

Let me know recorded pIC50 for CNC(=O)c1cc(-c2cnnc(-c3cc(NC(=O)c4ccnc(C(F)(F)F)c4)cnc3C)c2)ccn1 , thanks.
6.30 to 7.00

Retrieve pIC50 measured for CC(=O)Nc1cc(-c2cc(-c3cc(NC(=O)c4ccnc(C(F)(F)F)c4)c(F)cc3C)cc(C)n2)ccn1 and print it.
≥ 7.00

Tell me pIC50 reported for Cc1ccc(NC(=O)c2ccnc(C(F)(F)F)c2)cc1-c1cccc(-c2cc(NC(=O)C3CC3)ncn2)c1
≥ 7.00

Tell us which pIC50 value is on record for CC(=O)Nc1cc(-c2cncc(-c3cc(NC(=O)c4ccnc(C(C)(C)C#N)c4)ccc3C)n2)ccn1
≥ 7.00

Supply recorded pIC50 for COC(=O)Nc1cc(-c2cnnc(-c3cc(NC(=O)c4ccnc(C(C)(C)C#N)c4)c(F)cc3C)c2)ccn1 here.
≥ 7.00

Dear colleague, please send me the reported pIC50 for COc1cc(C(=O)Nc2ccc(C)c(-c3cncc(-c4ccnc(NC(C)=O)c4)n3)c2)ccc1F when you can.
≥ 7.00

Provide only the value of recorded pIC50 for CNC(=O)c1cc(-c2cncc(-c3cc(NC(=O)c4cc(C(F)(F)F)ccn4)ccc3C)n2)ccn1
≥ 7.00

Give pIC50 for the following molecule: Cc1ccc(NC(=O)c2ccnc(S(C)(=O)=O)c2)cc1-c1cc(-c2ccnc(NC(=O)C3CC3)c2)cnn1
≥ 7.00

Kindly indicate its recorded pIC50. Item: Cc1ncc(NC(=O)C2CCN(C)C2)cc1-c1cccc(-c2cc(NC(=O)C3CC3)ncn2)c1 (centres unmarked)
5.00 to 6.00

Identify pIC50 associated with the molecule COCC(=O)Nc1cc(-c2cccc(-c3cc(NC(=O)c4ccnc(C(F)(F)F)c4)cnc3C)n2)ccn1
≥ 7.00

# return recorded pIC50 for input CNC(=O)c1cc(-c2cc(-c3cc(NC(=O)c4ccnc(C(F)(F)F)c4)ccc3C)cc(=O)n2C)ccn1
6.00 to 6.30

###

// values below are reported IC50
test system: B-Raf kinase (SEQ. ID NO: 2) (Homo sapiens (Human))
Sequence (P15056 416-766): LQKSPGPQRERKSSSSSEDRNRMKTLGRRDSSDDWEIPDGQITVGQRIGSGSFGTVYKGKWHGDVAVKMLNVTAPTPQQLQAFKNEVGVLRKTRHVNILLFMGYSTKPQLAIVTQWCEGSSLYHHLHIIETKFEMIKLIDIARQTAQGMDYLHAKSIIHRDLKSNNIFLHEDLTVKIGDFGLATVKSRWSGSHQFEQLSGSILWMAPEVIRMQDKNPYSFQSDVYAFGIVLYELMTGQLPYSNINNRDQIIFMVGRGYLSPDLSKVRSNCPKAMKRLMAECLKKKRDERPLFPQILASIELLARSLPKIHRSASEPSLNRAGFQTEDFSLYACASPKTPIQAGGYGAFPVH
assay protocol: Biochemical Assay for B-Raf (1)
protocol conditions: Table J, assay version (1); read-out: BRAF (1) IC50

molecule: CNC(=O)c1cc(-c2nc(-c3cc(NC(=O)c4ccnc(C(C)(C)C#N)c4)ccc3C)cc(C3CC3)n2)ccn1
IC50: 100 to 500 nM
--
molecule: COC(C)(C)C(=O)Nc1cc(-c2cccc(-c3cc(NC(=O)c4ccnc(C(C)(C)C#N)c4)ccc3C)c2)ncn1
IC50: 500 to 1000 nM
--
molecule: CNC(=O)c1cc(-c2cc(-c3cc(NC(=O)c4ccnc(C(C)(C)F)c4)ccc3C)ccn2)ccn1
IC50: 100 to 500 nM
--
molecule: CNC(=O)c1cc(-c2cc(-c3cc(NC(=O)c4ccnc(C(F)(F)F)c4)ccc3C)ncn2)ccn1
IC50: ≤ 100 nM
--
molecule: Cc1ccc(NC(=O)c2ccnc(C(C)(C)C#N)c2)cc1-c1cncc(-c2ccnc(NC(=O)CC#N)c2)n1
IC50: ≤ 100 nM
--
molecule: Cc1ccc(NC(=O)C2CN(C)CCO2)cc1-c1cccc(-c2cc(NC(=O)C3CC3)ncn2)c1 (stereo not drawn)
IC50: ≤ 100 nM

Please look at COC(=O)Nc1cc(-c2cnnc(-c3cc(NC(=O)c4ccnc(C(C)(C)F)c4)cnc3C)c2)ccn1 and tell me its recorded IC50 on B-Raf kinase (SEQ. ID NO: 2) (Homo sapiens (Human)).
100 to 500 nM

Report IC50 under test system B-Raf kinase (SEQ. ID NO: 2) (Homo sapiens (Human)) for CCOc1ncc(-c2cc(NC(=O)c3ccnc(C(F)(F)F)c3)ccc2C)cc1-c1ccnc(NC(=O)C2CC2)c1 .
100 to 500 nM

Give the observed IC50 of CC(=O)Nc1cc(-c2cccc(-c3cc(NC(=O)c4ccnc(C(C)(C)C#N)c4)ccc3C)c2)ncn1 for B-Raf kinase (SEQ. ID NO: 2) (Homo sapiens (Human)).
≤ 100 nM

###

IC50: recorded values
test system: C-Raf kinase (SEQ. ID NO: 3) (Homo sapiens (Human), UniProt P04049, Y340D/Y341D)
assay protocol: Biochemical Assay for C-Raf (1)
protocol conditions: Table J, assay version (1); read-out: CRAF (1) IC50

Note down IC50 recorded for CNC(=O)c1cc(-c2cc(-c3cc(NC(=O)c4ccnc(C5(C#N)CC5)c4)ccc3C)ncn2)ccn1
≤ 100 nM

State its IC50 for this compound: Cc1ccc(NC(=O)c2ccnc(C(C)(C)C#N)c2)cc1-c1nccc(-c2ccnc(NC(=O)C3CC3)c2)n1
≤ 100 nM

Note down IC50 recorded for Cc1ccc(NC(=O)c2ccnc(C(F)(F)F)c2)cc1-c1cncc(-c2ccnc(NC(=O)CC#N)c2)n1
≤ 100 nM

Consider the compound Cc1ccc(NC(=O)c2ccnc(C(C)(C)C#N)c2)cc1-c1ccnc(-c2ccnc3c2CC(=O)N3)c1 . State its measured IC50.
≤ 100 nM

Give the reported IC50 for this compound. COC(=O)Nc1cc(-c2cnnc(-c3cc(NC(=O)c4ccnc(C5CC5)c4)cnc3C)c2)ccn1
≤ 100 nM

Determine from records and report IC50 for Cc1ncc(NC(=O)c2ccnc(C(C)(C)C#N)c2)cc1-c1cccc(-c2ncnc3c2CC(=O)N3)c1
100 to 500 nM
